These data points were gathered from patent US20260138959A1.

Tested on: c-KIT V560G/D816V
Test: Proliferation inhibitory activity on Ba/F3 cell (CellTiter-Glo, 72 hours), c-KIT V560G/D816V
Type: cell-based
Settings: Mus musculus, BaF3, c-KIT V560G/D816V cells, read-out: Cell (nM) c-KIT V560G/D816V (GI50 class)
Listed next: entries and their corresponding GI50.

| compound | measurementType | result |
| --- | --- | --- |
| COc1cc2c(-c3ccc(NC(=O)Cn4cc(C(C)C)nn4)cc3)ncnc2cc1OCC1CCN(C(C)=O)CC1 | GI50 | > 500 nM |
| COc1cc2c(-c3ccc(NC(=O)Cc4ccc(C(F)(F)F)cc4)cc3)ncnc2cc1OCCCN1C2CC1CN(C)C2 | GI50 | ≤ 200 nM |
| COc1cc2c(-c3ccc(NC(=O)C(C)(C)c4ccc(F)cc4)cc3)ncnc2cc1OCC1CCNCC1 | GI50 | 200 to 500 nM |
| CCN1CCCC(COc2cc3c(-c4ccc(NC(=O)Cc5ccc(C(F)(F)F)cc5)cc4)ncnc3cc2OC)C1 (stereo not shown) | GI50 | ≤ 200 nM |
| COc1cc2ncnc(-c3ccc(NC(=O)Cc4ccc(C(F)(F)F)cc4)cc3)c2cc1OCCN1CCN(C)CC1 | GI50 | 200 to 500 nM |

Find the measured GI50 of COc1cc2ncnc(-c3ccc(NC(=O)Cc4ccc(C(F)(F)F)cc4)cc3)c2cc1OCCCN1CCOCC1 and report it. 200 to 500 nM

Find the measured GI50 of COc1cc2c(-c3ccc(NC(=O)Cc4ccc(C(F)(F)F)cc4)cc3)ncnc2cc1OCCCN1CCN(C)C(=O)C1 and report it. ≤ 200 nM

---

Listed next: entries and their corresponding GI50.
Tested on: c-KIT D814Y
Assay: Proliferation inhibitory activity on Ba/F3 cell (CellTiter-Glo, 72 hours), c-KIT D814Y
Format: cell-based
Conditions: Mus musculus, BaF3, c-KIT D814Y cells, read-out: Cell (nM) c-KIT D814Y (GI50 class)

# annotated cases, reported GI50 shown
| compound | GI50 |
| --- | --- |
| CCN1CC(Oc2cc3c(-c4ccc(NC(=O)Cc5ccc(C(F)(F)F)cc5)cc4)ncnc3cc2OC)C1 | ≤ 200 nM |
| CCN1CCCC(COc2cc3c(-c4ccc(NC(=O)Cc5ccc(C(F)(F)F)cc5)cc4)ncnc3cc2OC)C1 (stereo not shown) | ≤ 200 nM |
| CCN1CCC(COc2cc3ncnc(-c4ccc(NC(=O)Cc5ccc(C(F)(F)F)cc5)cc4)c3cc2OC)CC1 | ≤ 200 nM |

For the next question, use this compound.
Find the measured GI50 of COc1cc2ncnc(-c3ccc(NC(=O)Cc4ccc(C(F)(F)F)cc4)cc3)c2cc1O[C@@H]1CCOC1 and report it. > 500 nM

---

Listed next: entries and their corresponding GI50.
System: c-KIT D814Y
Experiment: Proliferation inhibitory activity on Ba/F3 cell (CellTiter-Glo, 72 hours), c-KIT D814Y
Format: cell-based
Settings: Mus musculus, BaF3, c-KIT D814Y cells, read-out: Cell (nM) c-KIT D814Y (GI50 class)

| compound | assayedTarget | GI50 |
| --- | --- | --- |
| COc1cc2c(-c3ccc(NC(=O)Cc4ccc(C(F)(F)F)cc4)cc3)ncnc2cc1OCCCN1C[C@H]2C[C@@H]1CN2C [Example 31] | c-KIT D814Y | ≤ 200 nM |
| CCN1CCCC(COc2cc3ncnc(-c4ccc(NC(=O)Cc5ccc(C(F)(F)F)cc5)cc4)c3cc2OC)C1 (stereo not drawn) [Example 18] | c-KIT D814Y | ≤ 200 nM |
| COc1cc2c(-c3ccc(NC(=O)Cc4ccc(C(F)(F)F)cc4)cc3)ncnc2cc1OCCN1CCN(C)CC1 [Example 3] | c-KIT D814Y | ≤ 200 nM |
| COc1cc2c(-c3ccc(NC(=O)Cc4ccc(C(F)(F)F)cc4)cc3)ncnc2cc1OCCn1cccn1 [Example 30] | c-KIT D814Y | ≤ 200 nM |
| COc1cc2ncnc(-c3ccc(NC(=O)Cc4ccc(C(F)(F)F)cc4)cc3)c2cc1OC1CNC1 [Example 138] | c-KIT D814Y | ≤ 200 nM |

Find the measured GI50 of COc1cc2c(-c3ccc(NC(=O)Cc4ccc(C(F)(F)F)cc4)cc3)ncnc2cc1OCCCN1CCN(C)CC1 [Example 9] and report it. ≤ 200 nM

Find the measured GI50 of COc1cc2ncnc(-c3ccc(NC(=O)Cc4ccc(C(F)(F)F)cc4)cc3)c2cc1OCCCN1CCN(C)CC1 [Example 126] and report it. ≤ 200 nM

Find the measured GI50 of COCCN1CCC(COc2cc3ncnc(-c4ccc(NC(=O)Cc5ccc(C(F)(F)F)cc5)cc4)c3cc2OC)CC1 [Example 43] and report it. ≤ 200 nM

Find the measured GI50 of COc1cc2c(-c3ccc(NC(=O)Cc4ccc(C(F)(F)F)cc4)cc3)ncnc2cc1OCCCN1CC(N(C)C)C1 [Example 22] and report it. ≤ 200 nM

Find the measured GI50 of COc1cc2ncnc(-c3ccc(NC(=O)Cc4ccc(C(F)(F)F)cc4)cc3)c2cc1OCCN1CCN(C)CC1 [Example 131] and report it. 200 to 500 nM

Find the measured GI50 of COc1cc2ncnc(-c3ccc(NC(=O)Cc4ccc(C(F)(F)F)cc4)cc3)c2cc1OC1CCNCC1 [Example 140] and report it. > 500 nM

Find the measured GI50 of CCN(CC)CCCOc1cc2ncnc(-c3ccc(NC(=O)Cc4ccc(C(F)(F)F)cc4)cc3)c2cc1OC [Example 11] and report it. ≤ 200 nM

Find the measured GI50 of CCN1CC[C@@H](COc2cc3ncnc(-c4ccc(NC(=O)Cc5ccc(C(F)(F)F)cc5)cc4)c3cc2OC)C1 [Example 40] and report it. ≤ 200 nM

Find the measured GI50 of COc1cc2ncnc(-c3ccc(NC(=O)Cc4ccc(C(F)(F)F)cc4)cc3)c2cc1OCC1CCCNC1 (stereo not drawn) [Example 133] and report it. > 500 nM

Find the measured GI50 of CCN1CCC(Oc2cc3c(-c4ccc(NC(=O)Cc5ccc(C(F)(F)F)cc5)cc4)ncnc3cc2OC)C1 (stereo not drawn) [Example 145] and report it. ≤ 200 nM

---

System: Ba/F3-c-KIT(D816V)
Assay: Proliferation inhibitory activity on Ba/F3 cell (CellTiter-Glo, 72 hours), c-KIT(D816V)
Type: cell-based
Details: Mus musculus, BaF3, read-out: Ba/F3 (nM) c-KIT (D816V) (GI50 class)
measurementType: GI50

# annotated cases, reported GI50 shown
| molecule | measurementType | result |
| --- | --- | --- |
| COc1cc2ncnc(-c3ccc(NC(=O)Cc4ccc(C(F)(F)F)cc4)cc3)c2cc1OCCCN1CC(CO)(CO)C1 | GI50 | > 500 nM |
| COc1cc2c(-c3ccc(NC(=O)Cc4ccc(C(F)(F)F)cc4)cc3)ncnc2cc1OCCCCl | GI50 | ≤ 200 nM |
| COc1cc2c(-c3ccc(NC(=O)Cc4ccsc4)cc3)ncnc2cc1OCCCN1CCN(C)CC1 | GI50 | ≤ 200 nM |
| COc1cc2c(-c3ccc(NC(=O)Cc4ccc(C(F)(F)F)cc4)cc3)ncnc2cc1OCCn1cccn1 | GI50 | ≤ 200 nM |

Find the measured GI50 of COc1cc2ncnc(-c3ccc(NC(=O)Cc4ccc(C(F)(F)F)cc4)cc3)c2cc1OC1CCN(C(=O)OC(C)(C)C)CC1 and report it. 200 to 500 nM

---

Tested on: Ba/F3-TEL-PDGFβ(WT)
Assay: Proliferation inhibitory activity on Ba/F3 cell (CellTiter-Glo, 72 hours), PDGFR-β
Assay type: cell-based
Settings: Mus musculus, BaF3, read-out: Ba/F3 (nM) Tel-PDGFRβ (GI50 class)
measurementType: GI50

| molecule | measurementType | result |
| --- | --- | --- |
| CCN1CC2(C1)CN(CCCOc1cc3c(-c4ccc(NC(=O)Cc5ccc(C(F)(F)F)cc5)cc4)ncnc3cc1OC)C2 | GI50 | ≤ 200 nM |

# lookup: Ba/F3-TEL-PDGFβ(WT) GI50, key = COCCN1CCC(COc2cc3ncnc(-c4ccc(NC(=O)Cc5ccc6c(c5)OCO6)cc4)c3cc2OC)CC1 ≤ 200 nM

# lookup: Ba/F3-TEL-PDGFβ(WT) GI50, key = COc1cc2c(-c3ccc(C(=O)NCc4ccc(F)c(F)c4)cc3)ncnc2cc1OCCCN1CCN(C)CC1 ≤ 200 nM

# lookup: Ba/F3-TEL-PDGFβ(WT) GI50, key = COc1cc2ncnc(-c3ccc(NC(=O)Cc4ccc(F)cc4)cc3)c2cc1O ≤ 200 nM

# lookup: Ba/F3-TEL-PDGFβ(WT) GI50, key = CCN1CCCC(COc2cc3ncnc(-c4ccc(NC(=O)Cc5ccc(C(F)(F)F)nc5)cc4)c3cc2OC)C1 (stereo not shown) ≤ 200 nM

# lookup: Ba/F3-TEL-PDGFβ(WT) GI50, key = COc1cc2c(-c3ccc(NC(=O)Cc4ccc5c(c4)CCO5)cc3)ncnc2cc1OCCCN1CCN(C)CC1 ≤ 200 nM

# lookup: Ba/F3-TEL-PDGFβ(WT) GI50, key = COc1cc2c(-c3ccc(NC(=O)Cc4ccc(C(F)(F)F)cc4)c(C)c3)ncnc2cc1OCCCN1CCN(C)CC1 ≤ 200 nM
